setup.conditions: 298.15 K; 101.33 kPa; Liquid; Vibrating tube method
assay.endpoint: mass density (kg/m3)

Prompt: Please give the documented mass density of Cc1cccc(C)n1 [2,6-dimethylpyridine]
Completion: 918.19

Prompt: Please give the documented mass density of CN1CCOCC1 [N-methylmorpholine]
Completion: 914.15

Prompt: Please give the documented mass density of Cn1ccnc1 [1-methylimidazole]
Completion: 1031.14

Prompt: Please give the documented mass density of Cc1cccnc1 [3-methylpyridine]
Completion: 952.61

Prompt: Please give the documented mass density of Cc1ccncc1 [4-methylpyridine]
Completion: 949.87

Prompt: Please give the documented mass density of CN1CCCCC1 [N-methylpiperidine]
Completion: 812.62
